The measurements presented in this section are drawn from patent US20240109881A1.

Molecular target: IRAK4 (Homo sapiens, UniProt Q9NWZ3)
Construct: endogenous in cells; host or cells: THP-1 cells
Sequence (Q9NWZ3 whole entry): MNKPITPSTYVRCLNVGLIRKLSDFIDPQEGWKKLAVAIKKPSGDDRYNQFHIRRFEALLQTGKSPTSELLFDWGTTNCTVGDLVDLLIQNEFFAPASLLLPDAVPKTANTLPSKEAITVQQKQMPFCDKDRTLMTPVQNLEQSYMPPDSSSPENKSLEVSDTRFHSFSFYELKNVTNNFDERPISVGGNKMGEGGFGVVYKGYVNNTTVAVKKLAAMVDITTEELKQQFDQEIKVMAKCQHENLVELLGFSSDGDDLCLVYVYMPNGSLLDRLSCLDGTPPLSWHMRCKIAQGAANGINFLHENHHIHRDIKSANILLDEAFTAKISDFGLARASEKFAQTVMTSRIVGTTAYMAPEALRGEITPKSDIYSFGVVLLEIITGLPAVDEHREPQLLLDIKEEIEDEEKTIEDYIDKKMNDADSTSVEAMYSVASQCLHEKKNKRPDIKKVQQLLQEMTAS
Assay: LVL THP1 HTRF (THP1 Homogeneous Time Resolved Fluorescence)
Assay type: cell-based
Conditions: THP1 cells, 18 h incubation with compound

molecule	quantity_unit	LVL THP1 HTRF YMIN
CC1CN(CC[C@H]2CC[C@H](c3cn(-c4cnc(-n5ncc6cc(C#N)cnc65)cc4N[C@H](C)C#N)nn3)CC2)CCC1c1ccc([C@@]2(F)CCC(=O)NC2=O)cc1 (single isomer, unassigned) [P-333]	%	26.8
C[C@H](C#N)Nc1cc(-n2ncc3cc(C#N)cnc32)ncc1-n1cc([C@H]2CC[C@H](CCN3CCC4(c5ccc(N6CCC(=O)NC6=O)cc5)CC4C3)CC2)nn1 (some centres unmarked) [P-471]	%	7.7
C[C@H](C#N)Nc1cc(-n2ncc3cc(C#N)cnc32)ncc1-n1cc([C@H]2CC[C@H](CCN3CCC(c4ccc([C@@]5(C)CCC(=O)NC5=O)cc4)C(F)C3)CC2)nn1 (stereo in doubt) [P-310]	%	1.3
C[C@H](C#N)Nc1cc(-n2ncc3cc(C#N)cnc32)ncc1C(=O)N[C@H]1CC[C@H](CCN2CC[C@H]3[C@@H]2CCN3c2ccc(N3CCC(=O)NC3=O)c(F)c2)CC1 [P-481]	%	9.4
C[C@H](C#N)Nc1cc(-n2ncc3cc(C#N)cnc32)ncc1-n1cc([C@H]2CC[C@](O)(CCN3CCN(c4ccc(N5CCC(=O)NC5=O)cc4)CC3)CC2)nn1 (single isomer, unassigned) [P-373]	%	72.5

###

Molecular target: IRAK4 (Homo sapiens)
Construct: endogenous in cells; host or cells: THP-1 cells
Test: LVL THP1 HTRF (THP1 Homogeneous Time Resolved Fluorescence)
Type: cell-based
Settings: THP1 cells, 18 h incubation with compound

compound	LVL THP1 HTRF YMIN (%)
C[C@H](C#N)Nc1cc(Nc2ncc(C#N)cc2Cl)ncc1-n1cc([C@H]2CC[C@H](CCN3CC[C@H]4[C@@H]3CCN4c3ccc(N4CCC(=O)NC4=O)cc3)CC2)nn1 (single isomer, unassigned)	−0.52
C[C@H](C#N)Nc1cc(-n2ncc3cc(C#N)cnc32)ncc1-n1cc([C@H]2CC[C@H](CCN3CCN(c4ccc(N5CCC(=O)NC5=O)c(Cl)c4)CC3)CC2)nn1	3.1
C[C@H](C#N)Nc1cc(-n2ncc3cc(C#N)cnc32)ncc1-n1cc([C@H]2CC[C@H](CCN3CC[C@H]4[C@@H]3CCN4c3ccc([C@@]4(C)CCC(=O)NC4=O)cn3)CC2)nn1 (single isomer, unassigned) [P-312]	7.9
C[C@H](C#N)Nc1cc(-n2ncc3cc(C#N)c(N)nc32)ncc1-n1cc([C@H]2CC[C@H](CCN3CCN(c4ccc([C@@]5(C)CCC(=O)NC5=O)cn4)[C@@H](C)C3)CC2)nn1 (single isomer, unassigned) [P-259]	89.5
C[C@H](C#N)Nc1cc(-n2ncc3cc(C#N)cnc32)ncc1-n1cc(C2CCC(CCN3CCN(c4ccc([C@@]5(C)CCC(=O)NC5=O)cc4)[C@@H](C)C3)CC2)nn1 (some centres unmarked)	3.5

###

Target: IRAK4 (Homo sapiens, UniProt Q9NWZ3)
Construct: endogenous in cells; host or cells: THP-1 cells
Test: LVL THP1 HTRF (THP1 Homogeneous Time Resolved Fluorescence)
Assay type: cell-based
Conditions: THP1 cells, 18 h incubation with compound

compound	quantity_unit	LVL THP1 HTRF YMIN
C[C@H](C#N)Nc1cc(-n2ncc3cc(C#N)c(N4C[C@H]5C[C@@H]4CO5)nc32)ncc1-n1cc([C@H]2CC[C@H](CCN3CCC(c4ccc([C@@]5(F)CCC(=O)NC5=O)cc4)CC3)CC2)nn1 (single isomer, unassigned)	%	87.9
C[C@@H](C#N)Nc1cc(-n2ncc3cc(C#N)cnc32)ncc1-n1cc(C2CCC(CCN3CCN(c4ccc(C5CCC(=O)NC5=O)cc4)CC3)CC2)nn1 (stereo partly shown)	%	1.1
CC(C#N)Nc1cc(-n2ncc3cc(C#N)cnc32)ncc1-n1cc(C2CCC(C(C)CN3CCN(c4ccc(C5CCC(=O)NC5=O)cc4)CC3)CC2)nn1 (stereo not shown)	%	1.7
CS(=O)(=O)N1CCC(Nc2cc(-n3ncc4cc(C#N)c(N)nc43)ncc2-n2cc(C3CCC(CCN4CCN(c5ccc(C6CCC(=O)NC6=O)cc5)CC4)CC3)nn2)CC1 (stereo not shown)	%	1.6
C[C@H](C#N)Nc1cc(-n2ncc3cc(C#N)c(N)nc32)ncc1-n1cc([C@H]2CC[C@H](CCN3CCC(c4ccc([C@@]5(F)CCC(=O)NC5=O)cc4)CC3)CC2)nn1 (single isomer, unassigned) [P-317]	%	2.0
Cc1cc(N2CC[C@H]3[C@@H]2CCN3CC[C@H]2CC[C@H](c3cn(-c4cnc(-n5ncc6cc(C#N)cnc65)cc4N[C@H](C)C#N)nn3)CC2)ccc1N1CCC(=O)NC1=O (single isomer, unassigned) [P-474]	%	5.0
C[C@H](C#N)Nc1cc(-n2ncc3cc(C#N)c(N)nc32)ncc1-n1cc([C@H]2CC[C@H](CCN3CCN(c4cnc([C@@]5(C)CCC(=O)NC5=O)cn4)CC3)CC2)nn1 (single isomer, unassigned) [P-268]	%	−0.2
O=C1CCC(N2C(=O)c3ccc(NCCCNC(=O)C4CCC(NC(=O)c5cnc(Nc6ccc7ncsc7c6)cc5NC5CCCC5)CC4)cc3C2=O)C(=O)N1 (stereo not shown)	%	33.3
C[C@H](C#N)Nc1cc(-n2ncc3cc(C#N)cnc32)ncc1-n1cc([C@H]2CC[C@H](CCN3CCC(c4ccc5c(N6CCC(=O)NC6=O)nn(C)c5c4)CC3)CC2)nn1	%	0.9
C[C@H](C#N)Nc1cc(-n2ncc3cc(C#N)c(N)nc32)ncc1-n1cc(C2CCC(CCN3[C@@H](C)CN(c4ccc(C5CCC(=O)NC5=O)cc4)C[C@@H]3C)CC2)nn1 (stereo partly shown)	%	2.1

###

Molecular target: IRAK4 (Homo sapiens, UniProt Q9NWZ3)
Construct: endogenous in cells; host or cells: THP-1 cells
Assay: LVL THP1 HTRF (THP1 Homogeneous Time Resolved Fluorescence)
Assay type: cell-based
Conditions: THP1 cells, 18 h incubation with compound, read-out: LVL THP1 HTRF EC50
# label = T if DC50 < 20 nM else F

compound	measured_on	cat
C[C@H](C#N)Nc1cc(-n2ncc3cc(C#N)cnc32)ncc1-n1cc([C@H]2CC[C@H](CCN3CCC(c4ccc(N5CCC(=O)NC5=O)cc4)C(F)(F)C3)CC2)nn1 (single isomer, unassigned) [P-420]	IRAK4 (Homo sapiens, UniProt Q9NWZ3)	F
C[C@H](C#N)Nc1cc(-n2ncc3cc(C#N)cnc32)ncc1-n1cc([C@H]2CC[C@H](CCN3CCN(c4ncc(N5CCC(=O)NC5=O)s4)CC3)CC2)nn1	IRAK4 (Homo sapiens, UniProt Q9NWZ3)	F
C[C@H](C#N)Nc1cc(-n2ncc3cc(C#N)cnc32)ncc1-n1cc([C@H]2CC[C@H](CCN3CCC(n4ccc(C5(F)CCC(=O)NC5=O)cc4=O)CC3)CC2)nn1 (some centres unmarked)	IRAK4 (Homo sapiens, UniProt Q9NWZ3)	F
N#Cc1cnc2c(cnn2-c2cc(NCC3COC3)c(-n3cc([C@H]4CC[C@H](CCN5CCN(c6ccc(C7CCC(=O)NC7=O)cc6)CC5)CC4)nn3)cn2)c1 (some centres unmarked)	IRAK4 (Homo sapiens, UniProt Q9NWZ3)	F
C[C@H](C#N)Nc1cc(-n2ncc3cc(C#N)cnc32)ncc1-n1cc([C@H]2CC[C@H](CCN3CC[C@@H](c4ccc([C@@]5(C)CCC(=O)NC5=O)cc4)C(F)(F)C3)CC2)nn1 (single isomer, unassigned)	IRAK4 (Homo sapiens, UniProt Q9NWZ3)	F
C[C@H](C#N)Nc1cc(-n2ncc3cc(C#N)c(N)nc32)ncc1-n1cc(C2CCC(CCN3CCN(c4ccc([C@@]5(C)CCC(=O)NC5=O)cc4)[C@@H](C)C3)CC2)nn1 (some centres unmarked)	IRAK4 (Homo sapiens, UniProt Q9NWZ3)	T
C[C@H](C#N)Nc1cc(-n2ncc3cc(C#N)c(N)nc32)ncc1C(=O)N[C@H]1CC[C@H](CCN2CCN(c3ccc([C@@]4(C)CCC(=O)NC4=O)cc3)CC2)CC1	IRAK4 (Homo sapiens, UniProt Q9NWZ3)	T
CNc1nc2c(cnn2-c2cc(N[C@H](C)C#N)c(C(=O)N[C@H]3CC[C@H](CCN4CCN(c5ccc(C6CCC(=O)NC6=O)cc5)CC4)CC3)cn2)cc1C#N (some centres unmarked)	IRAK4 (Homo sapiens, UniProt Q9NWZ3)	T
C[C@]1(c2ccc(N3CCN(CC[C@H]4CC[C@H](c5cn(-c6cnc(-n7ncc8cc(C#N)c(N)nc87)cc6NC6(C#N)CC6)nn5)CC4)CC3)cc2)CCC(=O)NC1=O	IRAK4 (Homo sapiens, UniProt Q9NWZ3)	T
C[C@H](C#N)Nc1cc(-n2ncc3cc(C#N)cnc32)ncc1-n1cc([C@H]2CC[C@H](CCN3CCN(c4ccc(N5CCC(=O)NC5=O)cn4)CC3)CC2)nn1	IRAK4 (Homo sapiens, UniProt Q9NWZ3)	T
C[C@H](C#N)Nc1cc(-n2ncc3cc(C#N)c(N4C[C@H]5C[C@@H]4CO5)nc32)ncc1-n1cc([C@H]2CC[C@H](CCN3CCC(c4ccc([C@@]5(F)CCC(=O)NC5=O)cc4)CC3)CC2)nn1 (single isomer, unassigned)	IRAK4 (Homo sapiens, UniProt Q9NWZ3)	F
